assayed_system: Peroxisome proliferator-activated receptor gamma (Homo sapiens, UniProt P37231)
Sequence (P37231 whole entry): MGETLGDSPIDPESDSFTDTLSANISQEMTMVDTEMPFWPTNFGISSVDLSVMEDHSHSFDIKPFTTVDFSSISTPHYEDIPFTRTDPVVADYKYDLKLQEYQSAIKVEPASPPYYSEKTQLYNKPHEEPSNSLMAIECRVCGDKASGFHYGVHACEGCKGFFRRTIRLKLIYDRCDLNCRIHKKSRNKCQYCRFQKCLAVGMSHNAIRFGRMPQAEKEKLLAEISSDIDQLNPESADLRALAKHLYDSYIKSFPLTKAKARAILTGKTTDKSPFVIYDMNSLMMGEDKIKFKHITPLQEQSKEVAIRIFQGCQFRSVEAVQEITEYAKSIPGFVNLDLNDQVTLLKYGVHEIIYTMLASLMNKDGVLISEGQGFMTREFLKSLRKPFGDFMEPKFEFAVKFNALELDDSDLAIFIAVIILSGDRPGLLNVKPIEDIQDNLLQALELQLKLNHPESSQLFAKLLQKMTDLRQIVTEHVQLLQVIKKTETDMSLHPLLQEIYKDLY
pEC50: −log10 of the molar value.
Measured pEC50 by item
endpoint_label: pEC50

CCC(Cc1ccc(OC)c(C(=O)NCc2ccc(Oc3ccccc3)cc2)c1)C(=O)O (stereo not drawn) = 5.62
CCSC(Cc1ccc(OC)c(C(=O)NCc2ccc(C(F)(F)F)cc2)c1)C(=O)O (stereo not drawn) = 5.55
CCC(Cc1ccc(OC)c(C(=O)NCc2ccccc2)c1)C(=O)O (stereo not drawn) = 5.00

----------
Quick record of pEC50 values for Peroxisome proliferator-activated receptor alpha (Homo sapiens, UniProt Q07869).
pEC50: −log10 of the molar value.
endpoint_label: pEC50

CCC(Cc1ccc(OC)c(C(=O)NCc2ccc(OCCc3ccccc3)cc2)c1)C(=O)O (stereo not drawn) = 5.57
CCC(Cc1ccc(OC)c(C(=O)NCc2ccccc2OC)c1)C(=O)O (stereo not drawn) = 5.03
CCSC(Cc1ccc(OC)c(C(=O)NCc2ccc(C(F)(F)F)cc2)c1)C(=O)O (stereo not drawn) = 5.80
CCC(Cc1ccc(OC)c(C(=O)NCc2ccccc2)c1)C(=O)O (stereo not drawn) = 5.64
CCC(Cc1ccc(OC)c(C(=O)NCc2cccc(OC)c2)c1)C(=O)O (stereo not drawn) = 5.51
CCC(Cc1ccc(OC)c(C(=O)NCc2cccc(C(F)(F)F)c2)c1)C(=O)O (stereo not drawn) = 5.74
CCC(Cc1ccc(OC)c(C(=O)NCc2cccc(Oc3ccccc3)c2)c1)C(=O)O (stereo not drawn) = 6.40
CCC(Cc1ccc(OC)c(C(=O)NCc2ccc(OC)cc2)c1)C(=O)O (stereo not drawn) = 5.92
CCC(Cc1ccc(OC)c(C(=O)NCc2ccc(Oc3ccccc3)cc2)c1)C(=O)O (stereo not drawn) = 7.05
CCC(Cc1ccc(OC)c(C(=O)NCc2ccc(CCc3ccccc3)cc2)c1)C(=O)O (stereo not drawn) = 5.25
CCC(Cc1ccc(OC)c(C(=O)NCc2ccc(OC(F)(F)F)cc2)c1)C(=O)O (stereo not drawn) = 7.37
CCC(Cc1ccc(OC)c(C(=O)NCc2ccc(OCc3ccccc3)cc2)c1)C(=O)O (stereo not drawn) = 5.82
CCC(Cc1ccc(OC)c(C(=O)NCc2ccc(Cl)cc2)c1)C(=O)O (stereo not drawn) = 5.52
